Source listed as patent US20240409538A1.

- Test system: BRCA mutant human breast cancer MDA-MB-436 cell line
- EXPERIMENT: Growth inhibition of MDA-MB-436 cells, CCK-8 method
- Type: cell-based
- MEASUREMENT_CONDITIONS: MDA-MB-436, 168 h, 7 days incubation, read-out: IC50 (nM), inhibition of proliferation of MDA-MB-436 cells, CCK-8 method
Recorded IC50 for the following compounds
Write the number in nM without appending the unit.

Use the examples below as a reference point.
MOLECULAR_STRING	TARGET_ENTITY	IC50, nM
COc1ncnc(C2CC2)c1-c1nc2cccc(Cc3ccc(-c4nc(C(F)(F)F)cn4C)cc3)n2n1	BRCA mutant human breast cancer MDA-MB-436 cell line	26.4
COc1ncnc(C2CC2)c1-c1nc2c(Cc3ccc(-c4nc(C(F)(F)F)cn4C(C)C)cc3)cccn2n1	BRCA mutant human breast cancer MDA-MB-436 cell line	25.5
CC(C)c1ccccc1-c1nc2c(Cc3ccc(-c4nc(C(F)(F)F)cn4C)cc3)cccn2n1	BRCA mutant human breast cancer MDA-MB-436 cell line	111
COc1ncnc(C2CC2)c1-c1nc2c(Cc3ccc(-c4nc(C(F)(F)F)cn4C)cc3)cncn2n1	BRCA mutant human breast cancer MDA-MB-436 cell line	44.8
COc1ncnc(C2CC2)c1-c1nc2c(Cc3ccc(-n4nc(C(F)(F)F)cc4C)cc3)cccn2n1	BRCA mutant human breast cancer MDA-MB-436 cell line	28.3

*Q* # get_value(readout='IC50', item= Cc1cnn(C(C)C)c1-c1nc2cccc(Cc3ccc(-c4nc(C(F)(F)F)cn4C)cc3)n2n1 )
*A* 10.3

*Q* Consider the compound Cc1cnn(C(C)C)c1-c1nc2c(Cc3ccc(-c4nc(C(F)(F)F)cn4C)cc3)ccnn2n1 and give its measured IC50.
*A* 39.5

*Q* Find the recorded IC50 belonging to COc1ncnc(C2CC2)c1-c1nc2c(Cc3ccc(-c4nc(C(F)(F)F)cn4C)cc3)cccn2n1 and report it.
*A* 38.8

*Q* Entry under review: CC(C)c1ccccc1-c1nc2c(Cc3ccc(-c4nc(C(F)(F)F)cn4C)cc3)ccnn2n1 . Reported IC50?
*A* 1170

*Q* Sample Cc1cnn(C(C)C)c1-c1nc2c(Cc3ccc(-c4nc(C(F)(F)F)cn4C)cc3)cccn2n1 — what was its IC50?
*A* 13.2

*Q* I am curious: what IC50 value has been reported for CC(C)c1ccccc1-c1nc2cccc(Cc3ccc(-c4nc(C(F)(F)F)cn4C)cc3)n2n1 ?
*A* 226
